Recorded IC50 values for a group of binders are listed next.
SYSTEM TESTED: T1, recombinant human TL1A (human, UniProt O95150 71-251)
T1 construct: homotrimer; biotinylated for SPR capture; the ELISA paragraphs say only 'recombinant TL1A'; also called TNFSF15
T1 chain: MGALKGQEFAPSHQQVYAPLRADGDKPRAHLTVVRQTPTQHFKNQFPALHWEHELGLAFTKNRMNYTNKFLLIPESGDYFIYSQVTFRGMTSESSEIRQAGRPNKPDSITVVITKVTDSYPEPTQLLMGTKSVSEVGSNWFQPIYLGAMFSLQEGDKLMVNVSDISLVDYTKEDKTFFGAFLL
EXPERIMENT: competition ELISA vs bio-TL1A-0002
Report only the number, with the unit nM understood.

// worked examples, IC50 included
BINDER: TL1A-0086 (antibody, IgG1, V domains shown, IgG1/kappa variant of TL1A-0002) VH: QVQLVQSGAEVKKPGASVKVSCKASGYDFTYYGISWVRQAPGQGLEWMGWASTYNGNTHYAPSLQGRVTMTTDTSTRTAYMELRSLRSDDTAVYYCARENYYGSGAYRGGMDVWGQGTTVTVSS VL: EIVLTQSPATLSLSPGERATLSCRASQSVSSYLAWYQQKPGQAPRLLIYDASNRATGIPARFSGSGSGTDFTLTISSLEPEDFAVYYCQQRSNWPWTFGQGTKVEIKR
OBSERVED RESULT: 5
--
BINDER: TL1A-0080 (antibody, IgG1, V domains shown, IgG1/kappa variant of TL1A-0002) VH: QVQLVQSGAEVKKPGASVKVSCKASGYDFTYYGISWVRQAPGQGLEWMGWISTYGGNTHYARMLQGRVTMTTDTSTRTAYMELRSLRSDDTAVYYCARENYYGSGAYRGGMDVWGQGTTVTVSS VL: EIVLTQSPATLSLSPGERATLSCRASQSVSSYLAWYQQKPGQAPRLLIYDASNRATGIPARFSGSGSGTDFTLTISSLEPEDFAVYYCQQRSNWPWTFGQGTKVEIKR
OBSERVED RESULT: 5
--
BINDER: TL1A-0167 (antibody, human IgG1, kappa, V domains shown, TL1A-0002 heavy chain with R(H76)S, TL1A-0002 light chain) VH: QVQLVQSGAEVKKPGASVKVSCKASGYDFTYYGISWVRQAPGQGLEWMGWISTYNGNTHYARMLQGRVTMTTDTSTSTAYMELRSLRSDDTAVYYCARENYYGSGAYRGGMDVWGQGTTVTVSS VL: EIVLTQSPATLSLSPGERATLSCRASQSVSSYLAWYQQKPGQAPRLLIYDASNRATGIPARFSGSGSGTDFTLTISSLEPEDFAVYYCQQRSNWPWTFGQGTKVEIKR
OBSERVED RESULT: 4.2

// returns reported IC50 for input TL1A-0026 (antibody, IgG1, V domains shown, IgG1/kappa variant of TL1A-0002) VH: QVQLVQSGAEVKKPGASVKVSCKASGYDFTYYGISWVRQAPGQGLEWMGWISTYNGNEHYADSLQGRVTMTTDTSTRTAYMELRSLRSDDTAVYYCARENYYGSGAYRGGMDVWGQGTTVTVSS VL: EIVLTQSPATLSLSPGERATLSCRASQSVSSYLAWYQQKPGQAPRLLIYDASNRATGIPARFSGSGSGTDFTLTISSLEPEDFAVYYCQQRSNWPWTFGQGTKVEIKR 8.9

For TL1A-0025 (antibody, V domains shown) VH: QVQLVQSGAEVKKPGASVKVSCKASGYDFTYYGISWVRQAPGQGLEWMGWISTYNGNDHYADSLQGRVTMTTDTSTRTAYMELRSLRSDDTAVYYCARENYYGSGAYRGGMDVWGQGTTVTVSS VL: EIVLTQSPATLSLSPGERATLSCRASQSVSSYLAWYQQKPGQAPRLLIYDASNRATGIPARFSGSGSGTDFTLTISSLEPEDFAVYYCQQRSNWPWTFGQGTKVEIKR , what is its reported IC50? 7.2
